Biological target: T1, GLP-1 receptor
T1 chain: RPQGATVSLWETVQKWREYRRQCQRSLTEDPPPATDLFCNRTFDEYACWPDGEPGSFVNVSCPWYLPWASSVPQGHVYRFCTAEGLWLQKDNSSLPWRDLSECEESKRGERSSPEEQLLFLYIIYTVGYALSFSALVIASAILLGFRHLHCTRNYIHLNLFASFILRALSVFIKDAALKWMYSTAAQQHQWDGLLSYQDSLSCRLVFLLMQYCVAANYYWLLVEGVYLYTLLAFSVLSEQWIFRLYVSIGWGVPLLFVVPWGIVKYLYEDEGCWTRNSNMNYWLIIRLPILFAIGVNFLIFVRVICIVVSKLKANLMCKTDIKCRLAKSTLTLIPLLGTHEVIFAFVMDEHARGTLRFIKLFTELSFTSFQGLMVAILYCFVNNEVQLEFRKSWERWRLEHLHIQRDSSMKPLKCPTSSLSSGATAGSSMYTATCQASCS
Test: cell-based or functional assay
metric-name: cAMP production EC50 (nM)

>>> result("DICLPRWGCLWEFNPRGAHAEGTFTSDVSSYLEGQAAKEFIAWLVKGRG (ABP-LK-GLP fusion polypeptide; also called ABP-LK-GLP) [M3.1 fusion polypeptide]")
22
>>> result("LPHSHRAHSLPPFNPRPAHAEGTFTSDVSSYLEGQAAKEFIAWLVKGRG (ABP-LK-GLP fusion polypeptide; also called ABP-LK-GLP) [PA6.2 fusion polypeptide]")
23
>>> result("PSLLHWTHKIPALFNPRGAHAEGTFTSDVSSYLEGQAAKEFIAWLVKGRG (ABP-LK-GLP fusion polypeptide; also called ABP-LK-GLP) [DP8.1 fusion polypeptide]")
24
>>> result("LPHSHRAHSLPPFNPRGAHAEGTFTSDVSSYLEGQAAKEFIAWLVKGRG (ABP-LK-GLP fusion polypeptide; also called ABP-LK-GLP) [M6.1 fusion polypeptide]")
24
>>> result("PNICLPRWGCLWDFNPRGSHAEGTFTSDVSSYLEGQAAKEFIAWLVKGRG (ABP-LK-GLP fusion polypeptide; also called ABP-LK-GLP) [DP4.3 fusion polypeptide]")
18
>>> result("PDICLPRWGCLWEFNPRGAHAEGTFTSDVSSYLEGQAAKEFIAWLVKGRG (ABP-LK-GLP fusion polypeptide; also called ABP-LK-GLP) [DP3.1 fusion polypeptide]")
23
>>> result("PDICLPRWGCLWEFNPRGSHAEGTFTSDVSSYLEGQAAKEFIAWLVKGRG (ABP-LK-GLP fusion polypeptide; also called ABP-LK-GLP) [DP3.3 fusion polypeptide]")
21
>>> result("DP8.3 fusion polypeptide (ABP-LK-GLP fusion polypeptide, copied as printed with PSS at the N-terminus (DP8.1 and DP8.2 have PS); also called ABP-LK-GLP) peptide: PSSLLHWTHKIPALFNPRGSHAEGTFTSDVSSYLEGQAAKEFIAWLVKGRG")
23
>>> result("NICLPRWGCLWDFNPRGSHAEGTFTSDVSSYLEGQAAKEFIAWLVKGRG (ABP-LK-GLP fusion polypeptide; also called ABP-LK-GLP) [M4.3 fusion polypeptide]")
19
>>> result("PDICLPRWGCLWEFNPRGPHAEGTFTSDVSSYLEGQAAKEFIAWLVKGRG (ABP-LK-GLP fusion polypeptide; also called ABP-LK-GLP) [DP3.2 fusion polypeptide]")
19

Source listed as patent US20100075897A1.
